- Species: Rattus norvegicus
- protocol.text: Open TG-GATES - Regimen: Single
- Format: toxicity, organism-based, Sprague-Dawley
- Parameters: regimen Single, gender Male, age 6 weeks
- run.conditions: in vivo, po, 0 mg/kg, 24 h, tissue Plasma, route gavage, dose level Control
quantity.name: TP (g/dL)
Lab book: enter the figure in g/dL, no units written.

Previously resolved entries follow.
INSERT INTO results (molecule, quantity_name, recorded_value) VALUES
  ('CN1C(C(=O)Nc2ccccn2)=C(O)c2sc(Cl)cc2S1(=O)=O', 'TP', 5.6),
  ('CC(=O)Nc1nnc(S(N)(=O)=O)s1 [ACETAZOLAMIDE]', 'TP', 5.4),
  ('C1CCC(C(CC2CCCCN2)C2CCCCC2)CC1 (stereo unspecified)', 'TP', 5.7),
  ('O=[N+]([O-])c1ccc2c(c1)Cc1ccccc1-2', 'TP', 5.4),
  ('CC(CN1c2ccccc2Sc2ccccc21)N(C)C (stereo unspecified)', 'TP', 5.5),
  ('COc1cc([C@@H]2c3cc4c(cc3[C@@H](O[C@@H]3O[C@@H]5CO[C@@H](C)O[C@H]5[C@H](O)[C@H]3O)[C@H]3COC(=O)[C@H]23)OCO4)cc(OC)c1O [ETOPOSIDE]', 'TP', 5.6),
  ('Cc1cccc(Nc2ccccc2C(=O)O)c1C', 'TP', 5.7),
  ('CCOC(=O)[C@H](CCc1ccccc1)N[C@@H](C)C(=O)N1CCC[C@H]1C(=O)O', 'TP', 5.5),
  ('CN(C)[C@@H]1C(O)=C(C(N)=O)C(=O)[C@@]2(O)C(O)=C3C(=O)c4c(O)cccc4[C@@](C)(O)[C@H]3C[C@@H]12', 'TP', 5.7),
  ('C#C[C@]1(O)CC[C@H]2[C@@H]3CCC4=Cc5oncc5C[C@]4(C)[C@H]3CC[C@@]21C', 'TP', 5.5);

Would you kindly share the measured TP for Clc1c(Cl)c(Cl)c(Cl)c(Cl)c1Cl ?
5.5

====

- Species: Rattus norvegicus
- protocol.text: Open TG-GATES - Regimen: Single
- Type: toxicity, organism-based, Sprague-Dawley
- Design: regimen Single, gender Male, age 6 weeks
- run.conditions: in vivo, po, 0 mg/kg, 3 h, tissue Blood, route gavage, dose level Control
quantity.name: PT (s)
Lab book: enter the figure in s, no units written.

INSERT INTO results (compound, recorded_value) VALUES
  ('COc1cc([C@@H]2c3cc4c(cc3[C@@H](O[C@@H]3O[C@@H]5CO[C@@H](C)O[C@H]5[C@H](O)[C@H]3O)[C@H]3COC(=O)[C@H]23)OCO4)cc(OC)c1O [ETOPOSIDE]', 12.2);

Would you kindly share the measured PT for Clc1c(Cl)c(Cl)c(Cl)c(Cl)c1Cl ?
11.9

Would you kindly share the measured PT for Cc1cccc(Nc2ccccc2C(=O)O)c1C ?
12.4

Would you kindly share the measured PT for C1CCC(C(CC2CCCCN2)C2CCCCC2)CC1 (stereo not given) ?
16

Would you kindly share the measured PT for CCOC(=O)[C@H](CCc1ccccc1)N[C@@H](C)C(=O)N1CCC[C@H]1C(=O)O ?
12.1

====

- Species: Rattus norvegicus
- protocol.text: Open TG-GATES - Regimen: Single
- Type: toxicity, organism-based, Sprague-Dawley
- Parameters: regimen Single, gender Male, age 6 weeks
- run.conditions: in vivo, po, 0 mg/kg, 6 h, tissue Plasma, route gavage, dose level Control
quantity.name: AST (IU/L)
Lab book: enter the figure in IU/L, no units written.

Previously resolved entries follow.
INSERT INTO measurements (molecule, recorded_value) VALUES
  ('C1CCC(C(CC2CCCCN2)C2CCCCC2)CC1 (centres undefined) [PERHEXILINE]', 67.8),
  ('COc1cc([C@@H]2c3cc4c(cc3[C@@H](O[C@@H]3O[C@@H]5CO[C@@H](C)O[C@H]5[C@H](O)[C@H]3O)[C@H]3COC(=O)[C@H]23)OCO4)cc(OC)c1O [ETOPOSIDE]', 65.2),
  ('CC(=O)Nc1nnc(S(N)(=O)=O)s1 [ACETAZOLAMIDE]', 63.4);

Would you kindly share the measured AST for Clc1c(Cl)c(Cl)c(Cl)c(Cl)c1Cl [PERCHLOROBENZENE] ?
70.6

====

- Organism: Rattus norvegicus
- protocol.text: Open TG-GATES - Regimen: Daily Repeat
- Assay type: toxicity, organism-based, Sprague-Dawley
- Parameters: regimen Daily Repeat, gender Male, age 6 weeks
- run.conditions: in vivo, po, 0 mg/kg, 72 h, tissue Plasma, route gavage, dose level Control, time 3 day
quantity.name: LDH (IU/L)
Lab book: enter the figure in IU/L, no units written.

Would you kindly share the measured LDH for CCOC(=O)[C@H](CCc1ccccc1)N[C@@H](C)C(=O)N1CCC[C@H]1C(=O)O ?
82.2

Would you kindly share the measured LDH for C#C[C@]1(O)CC[C@H]2[C@@H]3CCC4=Cc5oncc5C[C@]4(C)[C@H]3CC[C@@]21C ?
190

Would you kindly share the measured LDH for CC(=O)Nc1nnc(S(N)(=O)=O)s1 [ACETAZOLAMIDE] ?
208.8

====

- Species: Rattus norvegicus
- protocol.text: Open TG-GATES - Regimen: Daily Repeat
- Type: toxicity, organism-based, Sprague-Dawley
- Parameters: regimen Daily Repeat, gender Male, age 6 weeks
- run.conditions: in vivo, po, 0 mg/kg, […], tissue Plasma, route gavage, dose level Control, time 7 day
quantity.name: BUN (mg/dL)
Lab book: enter the figure in mg/dL, no units written.

Previously resolved entries follow.
INSERT INTO measurements (compound, quantity_name, value_units, recorded_value) VALUES
  ('Clc1c(Cl)c(Cl)c(Cl)c(Cl)c1Cl [PERCHLOROBENZENE]', 'BUN', 'mg/dL', 19.2),
  ('CN(C)[C@@H]1C(O)=C(C(N)=O)C(=O)[C@@]2(O)C(O)=C3C(=O)c4c(O)cccc4[C@@](C)(O)[C@H]3C[C@@H]12 [TETRACYCLINE]', 'BUN', 'mg/dL', 19);

Please examine the following record next.
Would you kindly share the measured BUN for C1CCC(C(CC2CCCCN2)C2CCCCC2)CC1 (stereo not drawn) [PERHEXILINE] ?
18.6

====

The entries below are paired with their reported Ca.
- Species: Rattus norvegicus
- protocol.text: Open TG-GATES - Regimen: Single
- Type: toxicity, organism-based, Sprague-Dawley
- Set-up: regimen Single, gender Male, age 6 weeks
- run.conditions: in vivo, po, 0 mg/kg, 24 h, tissue Plasma, route gavage, dose level Control
Lab book: enter the figure in mg/dL, no units written.

Previously resolved entries follow.
INSERT INTO measurements (molecule, recorded_value) VALUES
  ('COc1cc([C@@H]2c3cc4c(cc3[C@@H](O[C@@H]3O[C@@H]5CO[C@@H](C)O[C@H]5[C@H](O)[C@H]3O)[C@H]3COC(=O)[C@H]23)OCO4)cc(OC)c1O [ETOPOSIDE]', 10.9),
  ('CN1C(C(=O)Nc2ccccn2)=C(O)c2sc(Cl)cc2S1(=O)=O', 10.8),
  ('Cc1cccc(Nc2ccccc2C(=O)O)c1C', 10.9);

Please examine the following record next.
Would you kindly share the measured Ca for CC(=O)Nc1nnc(S(N)(=O)=O)s1 [ACETAZOLAMIDE] ?
10.7

====

The entries below are paired with their reported Plat.
- Organism: Rattus norvegicus
- protocol.text: Open TG-GATES - Regimen: Single
- Format: toxicity, organism-based, Sprague-Dawley
- Parameters: regimen Single, gender Male, age 6 weeks
- run.conditions: in vivo, po, 0 mg/kg, 9 h, tissue Blood, route gavage, dose level Control
Lab book: enter the figure in x10_4/uL, no units written.

Previously resolved entries follow.
INSERT INTO measurements (compound, value_units, recorded_value) VALUES
  ('CN1C(C(=O)Nc2ccccn2)=C(O)c2sc(Cl)cc2S1(=O)=O [LORNOXICAM]', 'x10_4/uL', 119.2),
  ('COc1cc([C@@H]2c3cc4c(cc3[C@@H](O[C@@H]3O[C@@H]5CO[C@@H](C)O[C@H]5[C@H](O)[C@H]3O)[C@H]3COC(=O)[C@H]23)OCO4)cc(OC)c1O [ETOPOSIDE]', 'x10_4/uL', 117.1),
  ('CCOC(=O)[C@H](CCc1ccccc1)N[C@@H](C)C(=O)N1CCC[C@H]1C(=O)O', 'x10_4/uL', 112.2),
  ('C1CCC(C(CC2CCCCN2)C2CCCCC2)CC1 (stereo not given) [PERHEXILINE]', 'x10_4/uL', 131),
  ('CC(CN1c2ccccc2Sc2ccccc21)N(C)C (stereo not given) [PROMETHAZINE]', 'x10_4/uL', 123.9);

Would you kindly share the measured Plat for CC(=O)Nc1nnc(S(N)(=O)=O)s1 [ACETAZOLAMIDE] ?
115.3

Would you kindly share the measured Plat for CN(C)[C@@H]1C(O)=C(C(N)=O)C(=O)[C@@]2(O)C(O)=C3C(=O)c4c(O)cccc4[C@@](C)(O)[C@H]3C[C@@H]12 [TETRACYCLINE] ?
98.9

Would you kindly share the measured Plat for C#C[C@]1(O)CC[C@H]2[C@@H]3CCC4=Cc5oncc5C[C@]4(C)[C@H]3CC[C@@]21C [DANAZOL] ?
114.3

Would you kindly share the measured Plat for Clc1c(Cl)c(Cl)c(Cl)c(Cl)c1Cl [PERCHLOROBENZENE] ?
128.3

Would you kindly share the measured Plat for Cc1cccc(Nc2ccccc2C(=O)O)c1C [MEFENAMIC ACID] ?
106.8
